# conditionSummary: in n-butanol, 310.65 K
measuredParameter: solubility (mole fraction)

1) Clc1ccc2c(c1)Nc1ccccc1S2
0.0057

* * *

# conditionSummary: in 2-butanone, 285.65 K
measuredParameter: solubility (mole fraction)

1) Clc1ccc2c(c1)Nc1ccccc1S2
0.0356

* * *

# conditionSummary: in ethanol, 315.65 K
measuredParameter: solubility (mole fraction)

1) Clc1ccc2c(c1)Nc1ccccc1S2
0.00723

* * *

# conditionSummary: in methanol, 295.65 K
measuredParameter: solubility (mole fraction)

1) Clc1ccc2c(c1)Nc1ccccc1S2
0.0057

* * *

# conditionSummary: in isopropanol, 305.65 K
measuredParameter: solubility (mole fraction)

1) Clc1ccc2c(c1)Nc1ccccc1S2
0.00556
